Where these numbers come from: patent US20190175688A1

target: T1, HIV-1 YU-2 gp120 (wild-type gp120YU-2, monomeric) (HIV-1 (YU-2), UniProt P35961 32-498)
T1 construct: domain: gp120; only gp120 stood in the assay
procedure-summary: SPR competition, 17b inhibition: inhibition of gp120 binding to immobilized mAb 17b
Starred links: 1 amine or outer side, 2 acyl side, 3 side chain; linkers in the order of their positions; H or OH if unused. Positions of bridges follow the written chain, without caps; N, C: chain ends. Non-standard residues stand in square brackets, D forms with d. No end group written: not given here. X2 = (2S,4S)‑4‑(4-ferrocenyl-1H-1,2,3-triazol-1-yl)pyrrolidine‑2‑carboxylic acid, O=C([C@@H]1C[C@H](n2cc(-[c-]3cccc3)nn2)CN1[*:1])[*:2].[Fe+2].c1cc[cH-]c1; Pro(cis-4-Trz(4-CH2CH2Ph)) = O=C(O)[C@@H]1C[C@H](n2cc(CCc3ccccc3)nn2)CN1; Nle = CCCC[C@H](N)C(=O)O; Dab = NCC[C@H](N)C(=O)O
IC50 for assorted binders

Use these answered entries as a reference point.
DN[Nle][X2]WK-NH2 (lactam 1-6) [AAR036] = ~2000 nM
ENI[Pro(cis-4-Trz(4-CH2CH2Ph))]W[Dab]-NH2 (lactam 1-6, also called macrocycle AAR030) [AAR030] = > 20000 nM

Query binder follows.
Lab note: DNI[(2S,4S)‑4‑(4-(4-ethylphenyl)-1H-1,2,3-triazol-1-yl)pyrrolidine‑2‑carboxylic acid]WK-NH2 (lactam 1-6) [AAR029H] gave IC50 of ~245 nM
